- Experimental System: human GCGR (full-length glucagon receptor of 477 amino acids) (human, UniProt P47871 26-477)
- Sequence (P47871 26-477 limits assumed): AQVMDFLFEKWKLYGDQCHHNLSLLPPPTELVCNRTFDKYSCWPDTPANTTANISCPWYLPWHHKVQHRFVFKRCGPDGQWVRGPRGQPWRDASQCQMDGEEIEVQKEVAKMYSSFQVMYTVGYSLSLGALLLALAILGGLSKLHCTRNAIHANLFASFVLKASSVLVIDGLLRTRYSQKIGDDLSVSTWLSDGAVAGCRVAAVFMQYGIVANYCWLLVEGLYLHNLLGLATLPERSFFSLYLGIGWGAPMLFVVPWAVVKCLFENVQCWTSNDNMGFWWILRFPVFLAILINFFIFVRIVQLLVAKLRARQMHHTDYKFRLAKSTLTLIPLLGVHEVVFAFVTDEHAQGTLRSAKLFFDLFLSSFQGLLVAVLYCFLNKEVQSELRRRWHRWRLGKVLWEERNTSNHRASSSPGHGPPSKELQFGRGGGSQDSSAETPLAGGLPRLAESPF
- Assay Procedure: cell-based or functional assay
# IC50 annotations
Entry rule: numbers only, all in nM.

Here are 2 binders together with their reported answers.
Binder	Value Reported
hu1810-12 (antibody, human IgG4 S228P, kappa, F234A L235A, V domains shown, IgG4-AA / kappa humanized antibody; also called hu1810_VH.1C + hu1810_VL.1B) VH: QVQLVQSGAEVKKPGSSVKVSCKASGGTFSNYAISWVKQAPGQGLEWIGEIYPTSGNTYYNEKFKGKATLTADRSTSTMYMELSSLRSEDTAVYYCASGVITTVVSTDYFDYWGQGTLVTVSS VL: DIQMTQSPSSLSASVGDRVTITCRASLDISNYLNWYQLKPGKAVKLLIYYTSTLHSGVSSRFSGSGSGTEYTLTISSLQPEDFATYYCQQGNMVPYTFGGGTKVEIKR	75.9
hu1803-8 (antibody, human IgG4 S228P, kappa, F234A L235A, V domains shown) VH: EVQLVQSGAEVKKPGASVKVSCKASGYTFTDYWIEWVKQAPGQGLEWIGEILPGSTYTNYNEKFKGRATFTADPSTSTAYMELSSLRSEDTAVYYCSRGLSTLMAVDYFDYWGQGTTVTVSS VL: DIQMTQSPSSLSASVGDRVTITCRASQDISNYLNWYQQKPGGAVKLLIYYSSTLHSGVPSRFSGSGSGTDYTLTISSLQPEDFATYFCQQTNIFPWTFGGGTKVEIKR	85.9

Kindly consider the entry below.
Task: Suppose we examine the binder hu1803-12 (antibody, human IgG4 S228P, kappa, F234A L235A, V domains shown) VH: EVQLVQSGAEVKKPGASVKVSCKASGYTFTDYWIEWVKQAPGQGLEWIGEILPGSTYTNYNEKFKGRATFTADPSTSTAYMELSSLRSEDTAVYYCSRGLSTLMAVDYFDYWGQGTTVTVSS VL: DIQMTQSPSSLSASVGDRVTITCRASQDISNYLNWYQQKPGKAVKLLIYYSSTLHSGVPSRFSGSGSGTDYTLTISSLQPEDFATYYCQQTNIFPWTFGGGTKVEIKR ; what IC50 value has been reported?
Result: 86.9
